ASSAY_SYSTEM: T1, IL-2hex, mutant human IL-2 (deltaA1/T3A/F42A/Y45A/L72G/C125S) (human, UniProt P60568 22-153)
T1 chain: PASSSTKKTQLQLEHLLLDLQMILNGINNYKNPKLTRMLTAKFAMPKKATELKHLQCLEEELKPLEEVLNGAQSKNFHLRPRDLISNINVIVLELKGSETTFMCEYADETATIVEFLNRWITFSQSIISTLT
PROTOCOL_SUMMARY: Affinity (nM), Table 13B
REPORTED_ENDPOINT: pKd
# reply with the number alone; pKd is -log10 of concentration in mol/L

Rev1-Q27G/P94Y/L96F:H1V10 (bispecific antibody, V domains shown, H1V10 = D029 VH with T30S:W31R:S55L; also called H1V10 with D029LV2) VH: EVQLVESGGGLVQPGGSLRLSCAASGFTFSRSFMSWVRQAPGKGLEWVSWIGPSGLYTDYADSVKGRFTISRDNSKNTLYLQMNSLRAEDTAVYYCARSQYGRYYSPDYYFDYWGQGTLVTVSS VL: DIQMTQSPSSLSASVGDRVTITCRASGALGFYLNWYQQKPGKAPKLLIYAASSLSSGVPSRFSGSGSGTDFTLTISSLQPEDFATYYCQQGRTYPFTFGQGTKVEIKR :: 6.15
D029 HV2LV1 (bispecific antibody, V domains shown, also called Rev1/S55L:S32F) VH: EVQLVESGGGLVQPGGSLRLSCAASGFTFTWFFMSWVRQAPGKGLEWVSWIGPSGLYTDYADSVKGRFTISRDNSKNTLYLQMNSLRAEDTAVYYCARSQYGRYYSPDYYFDYWGQGTLVTVSS VL: DIQMTQSPSSLSASVGDRVTITCRASQALGFYLNWYQQKPGKAPKLLIYAASSLSSGVPSRFSGSGSGTDFTLTISSLQPEDFATYYCQQGRTPPLTFGQGTKVEIKR :: 5.96
D029 HV3LV4 (bispecific antibody, V domains shown, also called D029-Rev1:Q27G:P94Y/S55L:T30R:S32F) VH: EVQLVESGGGLVQPGGSLRLSCAASGFTFRWFFMSWVRQAPGKGLEWVSWIGPSGLYTDYADSVKGRFTISRDNSKNTLYLQMNSLRAEDTAVYYCARSQYGRYYSPDYYFDYWGQGTLVTVSS VL: DIQMTQSPSSLSASVGDRVTITCRASGALGFYLNWYQQKPGKAPKLLIYAASSLSSGVPSRFSGSGSGTDFTLTISSLQPEDFATYYCQQGRTYPLTFGQGTKVEIKR :: 6.28

Now for the binder whose pKd we want.
I have this binder here, D029HV4LV2 (bispecific antibody, V domains shown, also called Rev1-Q27G/P94Y/L96F:H1V9) VH: EVQLVESGGGLVQPGGSLRLSCAASGFTFSRFFMSWVRQAPGKGLEWVSWIGPSGLYTDYADSVKGRFTISRDNSKNTLYLQMNSLRAEDTAVYYCARSQYGRYYSPDYYFDYWGQGTLVTVSS VL: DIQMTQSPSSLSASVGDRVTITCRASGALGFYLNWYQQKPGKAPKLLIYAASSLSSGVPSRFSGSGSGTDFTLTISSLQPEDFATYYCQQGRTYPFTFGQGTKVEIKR , and I need its recorded pKd.
5.35
